Source listed as patent US10112926B2.

Here we list molecules with their recorded IC50 when tested on Vps34 (Homo sapiens (Human), UniProt Q8NEB9).
Sequence (Q8NEB9 whole entry): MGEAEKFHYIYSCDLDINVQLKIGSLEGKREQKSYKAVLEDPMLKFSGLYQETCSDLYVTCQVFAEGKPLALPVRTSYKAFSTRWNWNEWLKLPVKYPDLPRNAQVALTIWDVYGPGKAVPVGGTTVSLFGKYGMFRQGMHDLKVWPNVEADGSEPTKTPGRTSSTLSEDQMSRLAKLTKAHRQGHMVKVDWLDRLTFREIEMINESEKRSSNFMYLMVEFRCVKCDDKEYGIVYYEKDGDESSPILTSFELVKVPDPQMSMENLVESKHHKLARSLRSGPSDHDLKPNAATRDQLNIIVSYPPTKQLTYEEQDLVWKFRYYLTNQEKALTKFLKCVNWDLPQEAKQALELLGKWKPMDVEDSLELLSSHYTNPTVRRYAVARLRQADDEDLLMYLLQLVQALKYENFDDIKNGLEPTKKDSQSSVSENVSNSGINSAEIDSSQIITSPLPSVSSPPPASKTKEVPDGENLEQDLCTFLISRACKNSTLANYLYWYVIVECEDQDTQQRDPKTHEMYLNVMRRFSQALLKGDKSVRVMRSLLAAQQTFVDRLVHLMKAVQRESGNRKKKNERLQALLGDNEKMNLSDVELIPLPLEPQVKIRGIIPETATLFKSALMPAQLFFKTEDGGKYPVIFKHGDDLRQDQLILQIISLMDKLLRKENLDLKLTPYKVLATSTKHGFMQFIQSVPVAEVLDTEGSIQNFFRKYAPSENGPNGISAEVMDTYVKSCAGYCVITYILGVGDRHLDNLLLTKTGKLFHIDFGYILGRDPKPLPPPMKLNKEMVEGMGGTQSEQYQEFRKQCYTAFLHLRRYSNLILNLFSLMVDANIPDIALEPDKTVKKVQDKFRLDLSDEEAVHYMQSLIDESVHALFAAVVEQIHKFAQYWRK
Give the value in µM but do not write µM after it.

Examples with answers:
Cc1ncc(-c2cc(-c3cc(S(=O)(=O)NCC4(O)COC4)ccc3C)cnc2N)o1 [Example 104.7]: 3.2
Cc1ncc(-c2cc(-c3cc(S(=O)(=O)NCC4CCCOC4)ccc3C)cnc2N)o1 (stereo not shown) [Example 104.8]: 4.8

Consider now this further molecule.
Exercise: For the molecule shown here, Cc1ncc(-c2cc(-c3cc(S(=O)(=O)NC(CO)C(F)(F)F)ccc3C)cnc2N)o1 (stereo not shown) [Example 114.2] , give the reported IC50.
Key: 4.4

###

Below: a set of entries, each annotated with reported pIC50.
Target Under Test: PI 3-kinase delta (Homo sapiens (Human), UniProt O00329)
Sequence (O00329 whole entry, looked up): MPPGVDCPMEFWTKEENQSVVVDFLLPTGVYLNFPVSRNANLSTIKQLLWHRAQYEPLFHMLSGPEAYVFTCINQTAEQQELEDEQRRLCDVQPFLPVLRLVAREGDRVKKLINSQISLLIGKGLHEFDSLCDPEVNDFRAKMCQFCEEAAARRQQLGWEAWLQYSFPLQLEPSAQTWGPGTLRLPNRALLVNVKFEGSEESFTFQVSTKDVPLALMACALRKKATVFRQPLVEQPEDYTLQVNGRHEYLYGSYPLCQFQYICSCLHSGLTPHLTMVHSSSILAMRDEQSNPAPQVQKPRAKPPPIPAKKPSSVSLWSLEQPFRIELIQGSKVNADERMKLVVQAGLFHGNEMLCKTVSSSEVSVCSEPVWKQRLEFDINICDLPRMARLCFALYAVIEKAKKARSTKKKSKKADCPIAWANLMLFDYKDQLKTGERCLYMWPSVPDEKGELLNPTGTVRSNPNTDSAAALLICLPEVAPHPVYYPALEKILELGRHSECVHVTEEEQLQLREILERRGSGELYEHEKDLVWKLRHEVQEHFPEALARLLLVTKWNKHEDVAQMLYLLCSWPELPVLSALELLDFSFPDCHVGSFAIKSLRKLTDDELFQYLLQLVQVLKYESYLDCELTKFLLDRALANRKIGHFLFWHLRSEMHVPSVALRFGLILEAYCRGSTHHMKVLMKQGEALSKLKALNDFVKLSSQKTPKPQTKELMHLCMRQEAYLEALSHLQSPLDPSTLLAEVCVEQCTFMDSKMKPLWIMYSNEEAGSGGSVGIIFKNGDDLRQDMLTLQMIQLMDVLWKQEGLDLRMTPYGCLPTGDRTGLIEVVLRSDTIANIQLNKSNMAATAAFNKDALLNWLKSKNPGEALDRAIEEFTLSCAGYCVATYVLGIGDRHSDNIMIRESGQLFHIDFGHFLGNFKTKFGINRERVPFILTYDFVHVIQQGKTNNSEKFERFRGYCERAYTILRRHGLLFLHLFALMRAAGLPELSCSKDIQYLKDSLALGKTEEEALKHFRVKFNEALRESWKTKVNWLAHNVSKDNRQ
Sequence (P27986 whole entry partner, looked up): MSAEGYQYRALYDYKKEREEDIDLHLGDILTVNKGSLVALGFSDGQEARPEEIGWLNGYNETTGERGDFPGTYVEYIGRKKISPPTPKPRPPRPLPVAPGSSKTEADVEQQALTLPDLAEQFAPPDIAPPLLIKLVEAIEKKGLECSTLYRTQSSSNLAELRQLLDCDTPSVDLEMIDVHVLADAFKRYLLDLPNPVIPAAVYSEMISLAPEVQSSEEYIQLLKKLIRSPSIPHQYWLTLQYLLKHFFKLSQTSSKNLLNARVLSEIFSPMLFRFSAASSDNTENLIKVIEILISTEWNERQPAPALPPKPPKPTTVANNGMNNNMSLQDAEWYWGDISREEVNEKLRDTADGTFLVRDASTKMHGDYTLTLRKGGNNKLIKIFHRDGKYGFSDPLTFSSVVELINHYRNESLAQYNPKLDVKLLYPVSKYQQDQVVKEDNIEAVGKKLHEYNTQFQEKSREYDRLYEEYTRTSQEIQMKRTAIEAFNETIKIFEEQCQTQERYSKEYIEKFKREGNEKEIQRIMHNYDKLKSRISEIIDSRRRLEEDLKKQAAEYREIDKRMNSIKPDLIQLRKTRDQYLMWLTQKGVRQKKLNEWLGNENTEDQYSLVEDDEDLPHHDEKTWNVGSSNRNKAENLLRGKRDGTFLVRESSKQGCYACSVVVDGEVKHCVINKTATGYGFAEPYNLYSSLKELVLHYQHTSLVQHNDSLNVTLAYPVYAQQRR
Test Parameters: read-out: Assay F PI3Kδ IC50
FYI, pIC50 means -log10 of a concentration in mol per litre.

Cc1ncc(-c2cc(-c3cc(S(=O)(=O)NCC4(O)COC4)ccc3C)cnc2N)s1: 6.05

Consider now this further compound.
Exercise: For the compound shown here, `Cc1ncc(-c2cc(-c3cc(S(=O)(=O)N4CC(CO)C4)ccc3C)cnc2N)s1` , give the reported pIC50.
Key: 5.89

###

Here we list compounds with their recorded pIC50 when tested on PI 4-kinase beta (Homo sapiens (Human), UniProt Q9UBF8).
Where a name gives a salt, the structure may show the parent alone.
FYI, pIC50 means -log10 of a concentration in mol per litre.

Examples with answers:
Cc1cc(-c2cc(-c3cc(S(=O)(=O)N4CC(C)(O)C4)ccc3C)cnc2N)on1 [Example 37.28]: 5.55
Cc1cccc(NS(=O)(=O)c2ccc(C)c(-c3cnc(N)c(-c4cnn(C)c4)c3)c2)n1 [Example 30]: 5.51
Cc1ncc(-c2cc(-c3cc(S(=O)(=O)NCCCO)ccc3C)cnc2N)s1 [Example 9]: 5.72
Cc1cc(-c2cc(-c3cc(S(=O)(=O)NC[C@@H]4CCOC4)ccc3C)cnc2N)on1 [Example 38]: 5.51
Cc1nnc(-c2cc(-c3cc(S(=O)(=O)NCC(C)(C)O)ccc3C)cnc2N)s1 [Example 102]: 5.07
Cc1noc(-c2cc(-c3cc(S(=O)(=O)NCC4(O)CCC4)ccc3C)cnc2N)n1 [Example 37.15]: 5.27

Consider now this further compound.
Exercise: For the compound shown here, Cc1noc(-c2cc(-c3cc(S(=O)(=O)N[C@H]4CC[C@H](CO)CC4)ccc3C)cnc2N)n1 [Example 19, hydrochloride] , give the reported pIC50.
Key: 5.89

###

Target Under Test: Vps34 (Homo sapiens (Human), UniProt Q8NEB9)
pIC50: −log10 of the molar value.
Measurement Label: pIC50

Examples with answers:
Cc1cc(-c2cc(-c3cc(S(=O)(=O)N4CC(C)(O)C4)ccc3C)cnc2N)on1 [Example 37.28]: < 5.00
Cc1cc(-c2cc(-c3cc(S(=O)(=O)NCC4(CO)CCC4)ccc3C)cnc2N)on1 [Example 37.6]: < 5.00
Cc1ncc(-c2cc(-c3cc(S(=O)(=O)NCC(C)(C)CO)ccc3C)cnc2N)s1 [Example 83.4]: 5.66

Consider now this further compound.
Exercise: For the compound shown here, Cc1ccc(S(=O)(=O)N[C@H]2CC[C@H](O)CC2)cc1-c1cnc(N)c(-c2cnn(CC(F)(F)F)c2)c1 [Example 4.2] , give the reported pIC50.
Key: < 5.00

###

Target Under Test: PI 3-kinase beta (Rat-1 pBABEpuro Myr-HA-hp110 beta cells) (Homo sapiens (Human), UniProt P42338)
Sequence (P42338 whole entry, looked up): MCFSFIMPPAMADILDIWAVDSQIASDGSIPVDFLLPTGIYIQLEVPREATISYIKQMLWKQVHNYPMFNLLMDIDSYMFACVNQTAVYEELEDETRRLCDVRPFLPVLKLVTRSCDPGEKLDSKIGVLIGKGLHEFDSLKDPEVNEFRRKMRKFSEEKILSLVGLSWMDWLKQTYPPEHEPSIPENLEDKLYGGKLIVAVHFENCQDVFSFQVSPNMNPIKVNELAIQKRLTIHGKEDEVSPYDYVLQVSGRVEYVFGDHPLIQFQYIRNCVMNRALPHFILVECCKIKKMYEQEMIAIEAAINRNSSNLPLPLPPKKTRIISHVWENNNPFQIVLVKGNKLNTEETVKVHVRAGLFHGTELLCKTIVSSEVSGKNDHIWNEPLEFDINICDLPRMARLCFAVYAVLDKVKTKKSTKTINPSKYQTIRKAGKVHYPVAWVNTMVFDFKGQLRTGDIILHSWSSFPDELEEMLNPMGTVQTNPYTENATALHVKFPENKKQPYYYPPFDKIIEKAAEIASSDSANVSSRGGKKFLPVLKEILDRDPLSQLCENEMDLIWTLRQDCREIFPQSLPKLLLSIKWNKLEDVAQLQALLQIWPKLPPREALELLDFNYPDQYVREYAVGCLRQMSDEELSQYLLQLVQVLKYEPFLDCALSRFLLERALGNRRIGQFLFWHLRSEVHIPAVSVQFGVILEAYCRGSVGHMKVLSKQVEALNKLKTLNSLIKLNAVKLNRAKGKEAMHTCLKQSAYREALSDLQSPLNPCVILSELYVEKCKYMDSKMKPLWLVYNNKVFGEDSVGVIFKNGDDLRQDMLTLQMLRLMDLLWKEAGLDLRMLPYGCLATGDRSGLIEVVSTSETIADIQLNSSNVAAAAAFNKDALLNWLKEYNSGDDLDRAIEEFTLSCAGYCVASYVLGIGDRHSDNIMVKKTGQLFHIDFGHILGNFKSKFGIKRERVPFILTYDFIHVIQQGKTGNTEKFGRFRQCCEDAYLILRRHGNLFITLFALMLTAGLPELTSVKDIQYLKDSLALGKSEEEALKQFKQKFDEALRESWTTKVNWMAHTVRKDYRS
Sequence (Q63787 whole entry partner, looked up): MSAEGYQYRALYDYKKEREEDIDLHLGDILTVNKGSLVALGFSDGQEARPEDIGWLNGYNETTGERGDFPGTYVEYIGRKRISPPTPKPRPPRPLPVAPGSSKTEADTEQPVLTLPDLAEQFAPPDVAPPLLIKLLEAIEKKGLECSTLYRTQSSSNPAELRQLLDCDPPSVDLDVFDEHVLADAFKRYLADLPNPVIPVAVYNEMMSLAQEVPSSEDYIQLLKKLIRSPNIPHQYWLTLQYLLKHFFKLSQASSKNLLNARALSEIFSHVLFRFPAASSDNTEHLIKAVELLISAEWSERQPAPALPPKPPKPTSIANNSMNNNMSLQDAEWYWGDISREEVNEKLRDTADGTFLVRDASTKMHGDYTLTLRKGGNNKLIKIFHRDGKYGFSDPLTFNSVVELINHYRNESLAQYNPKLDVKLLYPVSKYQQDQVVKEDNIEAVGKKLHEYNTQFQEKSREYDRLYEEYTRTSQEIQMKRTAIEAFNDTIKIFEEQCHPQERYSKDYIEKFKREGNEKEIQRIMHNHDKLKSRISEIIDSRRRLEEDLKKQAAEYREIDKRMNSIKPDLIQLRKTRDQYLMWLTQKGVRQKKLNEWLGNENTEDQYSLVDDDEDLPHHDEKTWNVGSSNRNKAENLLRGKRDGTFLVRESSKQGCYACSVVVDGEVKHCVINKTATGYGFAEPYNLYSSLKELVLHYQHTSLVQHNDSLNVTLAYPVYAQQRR
Experiment: cell-based
Test Parameters: Assay I PI3Kβ IC50
Below: a set of entries, each annotated with reported IC50.

Cc1noc(-c2cc(-c3cc(S(=O)(=O)NCC(C)(C)O)c(C)cc3C)cnc2N)n1: > 10 µM

Consider now this further compound.
Exercise: For the compound shown here, `Cc1ccc(S(=O)(=O)N[C@H]2CC[C@H](O)CC2)cc1-c1cnc(N)c(-c2nc(CC(F)(F)F)no2)c1` , give the reported IC50.
Key: > 10 µM

###

Target Under Test: PI 3-kinase beta (Rat-1 pBABEpuro Myr-HA-hp110 beta cells) (Homo sapiens (Human), UniProt P42338)
Experiment: cell-based
pIC50: −log10 of the molar value.
Measurement Label: pIC50

Exercise: For the compound shown here, Cc1cc(-c2cc(-c3cc(S(=O)(=O)N4C[C@H](C)[C@@H](O)C4)ccc3C)cnc2N)on1 (relative stereo) , give the reported pIC50.
Key: < 5.00

###

Here we list molecules with their recorded IC50 when tested on Vps34 (Homo sapiens (Human), UniProt Q8NEB9).

Examples with answers:
Cc1ccc(S(=O)(=O)NCCC(C)(C)O)cc1-c1cnc(N)c(-c2cnn(CC(F)(F)F)c2)c1: > 9.1 µM
Cc1noc(-c2cc(-c3cc(S(=O)(=O)NCC4(C)COC4)ccc3C)cnc2N)n1: > 10 µM
Cc1ccc(S(=O)(=O)N[C@H]2CC[C@H](O)CC2)cc1-c1cnc(N)c(-c2nc(CC(F)(F)F)no2)c1: > 10 µM

Exercise: For the molecule shown here, `Cc1noc(-c2cc(-c3cc(S(=O)(=O)N[C@@H]4CCNC(=O)C4)ccc3C)cnc2N)n1` , give the reported IC50.
Key: > 10 µM

Exercise: Check `Cc1ncc(-c2cc(-c3cc(S(=O)(=O)NCC4(O)COC4)ccc3C)cnc2N)s1` too.
Key: 9.7 µM

Exercise: Check `Cc1ncc(-c2cc(-c3cc(S(=O)(=O)NCC4(CO)COC4)ccc3C)cnc2N)s1` too.
Key: 8.4 µM

Exercise: Check `Cc1noc(-c2cc(-c3cc(S(=O)(=O)NC[C@H]4CCOC4)ccc3C)cnc2N)n1` too.
Key: > 10 µM

Exercise: Check `Cc1ncc(-c2cc(-c3cc(S(=O)(=O)NCC4COC4)ccc3C)cnc2N)s1` too.
Key: 6.2 µM

###

Target Under Test: PI 4-kinase beta (Homo sapiens (Human), UniProt Q9UBF8)
Structures can show the parent of a compound that is named as a salt.
Would you mind classing the entries by IC50? Ranges: range 1 (below 3 µM), range 2 (3 µM to below 5 µM), range 3 (5 µM or more)

Observe how each entry below is paired with its result.
Cc1noc(-c2cc(-c3cc(S(=O)(=O)NCCC4(O)CCCC4)ccc3C)cnc2N)n1 [Example 37.11]: range 3
Cc1cc(-c2cc(-c3cc(S(=O)(=O)N[C@@H]4CCNC(=O)C4)ccc3C)cnc2N)on1 [Example 37.4]: range 1
Cc1ncc(-c2cc(-c3cc(S(N)(=O)=O)ccc3C)cnc2N)o1 [Example 33]: range 2
Cc1cc(-c2cc(-c3cc(S(=O)(=O)NCCC4CCOCC4)ccc3C)cnc2N)on1 [Example 19.12, trifluoroacetic acid salt]: range 2

Exercise: Each molecule maps to one class by IC50. Which class for Cc1noc(-c2cc(-c3cc(S(=O)(=O)NCC(C)(C)O)ccc3C)cnc2N)n1 [Example 10, hydrochloride salt] ?
Key: range 3

Exercise: Check Cc1ccc(S(=O)(=O)NCC(C)(C)O)cc1-c1cnc(N)c(-c2nc(C(C)C)no2)c1 [Example 5.1, hydrochloride] too.
Key: range 2

Exercise: Check Cc1noc(-c2cc(-c3cc(S(=O)(=O)NC4CCN(C(C)C)CC4)ccc3C)cnc2N)n1 [Example 37.34] too.
Key: range 3

Exercise: Check Cc1noc(-c2cc(-c3cc(S(=O)(=O)NC4CCOCC4)ccc3C)cnc2N)n1 [Example 49] too.
Key: range 3

Exercise: Check Cc1cc(-c2cc(-c3cc(S(=O)(=O)NC4CC4)ccc3C)cnc2N)on1 [Example 31] too.
Key: range 1

Exercise: Check Cc1cc(-c2cc(-c3cc(S(=O)(=O)N4CCNC(=O)C4)ccc3C)cnc2N)on1 [Example 19.17, trifluoroacetic acid salt] too.
Key: range 1

Exercise: Check Cc1ccc(S(=O)(=O)NCC(C)(C)O)cc1-c1cnc(N)c(-c2cnn(C)n2)c1 [Example 4.4, hydrochloride] too.
Key: range 3

Exercise: Check Cc1cc(-c2cc(-c3cc(S(=O)(=O)NCC4(CO)CCC4)ccc3C)cnc2N)on1 [Example 37.6] too.
Key: range 1

Exercise: Check Cc1noc(-c2cc(-c3cc(S(=O)(=O)NCCC4(O)CCCCC4)ccc3C)cnc2N)n1 [Example 37.31] too.
Key: range 3

Exercise: Check Cc1cc(-c2cc(-c3cc(S(=O)(=O)NC[C@@H]4CCCO4)ccc3C)cnc2N)on1 [Example 40] too.
Key: range 2

###

Target Under Test: PI 4-kinase beta (Homo sapiens (Human))
Test Parameters: read-out: Assay D PI4Kβ IC50
Where a name gives a salt, the structure may show the parent alone.
Measurement Label: IC50 (µM)
Give the value in µM but do not write µM after it.

Examples with answers:
Cc1cc(-c2cc(-c3cc(S(=O)(=O)N4C[C@H](C)[C@@H](O)C4)ccc3C)cnc2N)on1 (relative stereo): 3.6
Cc1cnc(-c2cc(-c3cc(S(=O)(=O)NCCC(C)(C)O)ccc3C)cnc2N)s1: 0.79
Cc1noc(-c2cc(-c3cc(S(=O)(=O)NC4CC(F)(F)C4)ccc3C)cnc2N)n1: 8.6
Cc1nnc(-c2cc(-c3cc(S(=O)(=O)NCCC(C)(C)O)ccc3C)cnc2N)s1: 2.9
Cc1ccc(S(=O)(=O)NCC(C)(C)O)cc1-c1cnc(N)c(-c2nc(C(F)F)no2)c1 [Example 71, hydrochloride]: 10

Exercise: PI 4-kinase beta (Homo sapiens (Human)) / IC50 / Cc1ncc(-c2cc(-c3cc(S(=O)(=O)N[C@H]4CC[C@H](O)CC4)ccc3C)cnc2N)o1 [Example 98, hydrochloride] : value?
Key: 0.83

Exercise: Check Cc1cc(-c2cc(-c3cc(S(=O)(=O)N[C@H]4CCC[C@H](O)C4)ccc3C)cnc2N)on1 [Example 19.16, trifluoroacetic acid salt] too.
Key: 1.5

Exercise: Check Cc1noc(-c2cc(-c3cc(S(=O)(=O)N[C@H]4CC[C@H](O)CC4)ccc3C)cnc2N)n1 [Example 12, hydrochloride salt] too.
Key: 5.3

Exercise: Check `Cc1noc(-c2cc(-c3cc(S(=O)(=O)NCCC(F)(F)F)ccc3C)cnc2N)n1` too.
Key: 6

Exercise: Check Cc1ncc(-c2cc(-c3cc(S(=O)(=O)NCC4CCCOC4)ccc3C)cnc2N)o1 (stereo not drawn) too.
Key: 2

Exercise: Check Cc1ccc(S(=O)(=O)NCC(C)(C)O)cc1-c1cnc(N)c(-c2cc(C3CC3)no2)c1 [Example 35.3, hydrochloride] too.
Key: 1.3

Exercise: Check `Cc1ccc(S(=O)(=O)N[C@H]2CC[C@H](O)CC2)cc1-c1cnc(N)c(-c2nc(CC(F)(F)F)no2)c1` too.
Key: 0.49
